# tested.target: Proteasome subunit beta (Trypanosoma cruzi) (UniProt O96673)
# Sequence (O96673 as listed by the source): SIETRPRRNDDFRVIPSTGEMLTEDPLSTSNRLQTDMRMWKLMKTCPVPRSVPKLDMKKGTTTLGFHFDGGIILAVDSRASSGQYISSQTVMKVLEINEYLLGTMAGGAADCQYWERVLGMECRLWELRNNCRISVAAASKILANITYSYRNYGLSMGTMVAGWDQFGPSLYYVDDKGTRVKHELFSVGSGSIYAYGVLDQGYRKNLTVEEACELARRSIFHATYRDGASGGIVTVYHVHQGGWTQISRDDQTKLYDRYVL
# assay.details: Trypanosoma cruzi proteasome chymotrypsin-like activity (TcProtChymo) assay.
# Type: functional
# Set-up: scale not given: in the data most compounds retested in dose-response had high values
# run.parameters: 9.37 µM
Would you kindly list Percent Effect for each of these molecules?
Note: unit % is implicit; provide only the numeric part.

Query (molecule): CN1CC(=O)N(c2ccccc2)CC12CCN(Cc1cccnc1)C2 (stereo not drawn) ; field requested: Percent Effect
5.74

Query (molecule): Cc1cc(C[C@@H]2COC[C@H]2NCc2ccccc2C(F)(F)F)on1 ; field requested: Percent Effect
14

Query (molecule): Cc1cc2nc(SCC(=O)N3CCOCC3)n(CC(C)C)c(=O)c2[nH]1 ; field requested: Percent Effect
18.3

Query (molecule): O=C(c1ccccc1N1CCOCC1)N1CCCC(n2cccn2)C1 (stereo not drawn) ; field requested: Percent Effect
3.06

Query (molecule): CCOCCn1nc(C)cc1C(=O)N1CCN(C(C)C)C(CC)C1 (stereo not drawn) ; field requested: Percent Effect
10.9

Query (molecule): CCc1cccc(OCC(=O)N2CCCC(n3cncn3)C2)c1 (stereo not drawn) ; field requested: Percent Effect
13

Query (molecule): C[C@@H]1C[C@@H]2CCN(C(=O)c3cnccn3)C[C@H]2O1 ; field requested: Percent Effect
-0.592

Query (molecule): CC(=O)NCC1CCN(CC2CCOc3ccccc3C2)CC1 (stereo not drawn) ; field requested: Percent Effect
13.2

Query (molecule): CC(C)Nc1nc(N2CCOCC2)nc2c1CN(CC(=O)N(C)C)CC2 ; field requested: Percent Effect
-5.37

Query (molecule): CCn1cc(CN2CCCN(C(=O)CCc3ccncc3)CC2)cn1 ; field requested: Percent Effect
5.91

Query (molecule): O=C(Cc1ccc2c(c1)OCO2)N1CCCN(c2ccccc2)CC1 ; field requested: Percent Effect
4.54

Query (molecule): CN(Cc1ncc[nH]1)CC(c1cccs1)N1CCOCC1 (stereo not drawn) ; field requested: Percent Effect
12.4

Query (molecule): O=c1c2sccc2nc2n1CCN(Cc1cccs1)CC2 ; field requested: Percent Effect
10.9

Query (molecule): CCc1cc(NCc2ccccc2CN2CCCC2)n2ncnc2n1 ; field requested: Percent Effect
17.4

Query (molecule): CSC(C)(C)CNC(=O)NC1CCN(C)CC1 ; field requested: Percent Effect
0

Query (molecule): COCCCN1CCC(NC(=O)C(C)C)CC1 ; field requested: Percent Effect
6.76

Query (molecule): COCC(=O)N1CC[C@H]2C[C@H](C)O[C@@H]2C1 ; field requested: Percent Effect
17.4

Query (molecule): Cc1cnn(C2CCCN(C(=O)c3ccc(N(C)C)nn3)C2)c1 (stereo not drawn) ; field requested: Percent Effect
-1.01

Query (molecule): Cn1cc(CN(Cc2ccccc2)CC(O)c2cccs2)cn1 (stereo not drawn) ; field requested: Percent Effect
7.81

Query (molecule): CC(C)Oc1ncccc1CNC(=O)c1cc[nH]n1 ; field requested: Percent Effect
-0.18

Query (molecule): Cc1ccc(C(O)CNC(=O)NCc2nc(C)cs2)cc1 (stereo not drawn) ; field requested: Percent Effect
12.9

Query (molecule): CC(=O)c1cn(CCC(=O)NCCC(=O)O)c2ccccc12 ; field requested: Percent Effect
15.5

Query (molecule): CCCC(C)(C)NC(=O)c1ccc(CC2CC(=O)NC2=O)cc1 (stereo not drawn) ; field requested: Percent Effect
15.1

Query (molecule): Cc1cccc(CN2C(=O)CC[C@@H]3[C@H]2CCN3Cc2ccc(C)s2)n1 ; field requested: Percent Effect
9.43

Query (molecule): Cc1ncc2c(n1)CCN(C(=O)Cc1c(C)noc1C)C2 ; field requested: Percent Effect
8.21

Query (molecule): Cc1nn(C)c(C)c1CC(=O)N1CCC(N(C)c2cccnn2)CC1 ; field requested: Percent Effect
10.5

Query (molecule): Cn1cc(Br)c(=O)c(NS(=O)(=O)c2ccc(F)cc2)c1 ; field requested: Percent Effect
10.5

Query (molecule): O=C(c1ccc2c(c1)COC2)N1CCN(CC2CC2)CC1 ; field requested: Percent Effect
-2.21

Query (molecule): COc1cc(CNC(=O)NCc2c(C)cc(C)[nH]c2=O)ccc1C ; field requested: Percent Effect
11.9

Query (molecule): OC(CN1CCN(Cc2nnc(C3CC3)o2)CC1)c1ccccc1 (stereo not drawn) ; field requested: Percent Effect
-3.19

Query (molecule): CCOC(CC)C(=O)NCCC(=O)N1CCN(c2ncccn2)CC1 (stereo not drawn) ; field requested: Percent Effect
7.19

Query (molecule): N#CC(Sc1nnnn1C1CCOCC1)C1CCCCC1 (stereo not drawn) ; field requested: Percent Effect
7.32

Query (molecule): CCn1cnnc1C1CCN(C(=O)c2cnc(C3CC3)s2)CC1 ; field requested: Percent Effect
3.52

Query (molecule): Cc1cccc(-c2ccc(C(=O)NCC(C)(C)C(N)=O)c(=O)[nH]2)c1 ; field requested: Percent Effect
5.41

Query (molecule): CC(=O)N1CCCN(C(=O)NCCc2ccc(Cl)s2)CC1 ; field requested: Percent Effect
6.35

Query (molecule): CCc1n[nH]c(C2CN(CCc3ccncc3)CCO2)n1 (stereo not drawn) ; field requested: Percent Effect
1.72

Query (molecule): CCn1cc(CN(C)S(=O)(=O)c2ccc(Cl)cc2)cn1 ; field requested: Percent Effect
10.3

Query (molecule): O=C(c1ccc(F)c(F)c1)N1CCCSCC1CN1CCCC1 (stereo not drawn) ; field requested: Percent Effect
8.7

Query (molecule): CN(C)[C@@H]1CCN(C(=O)c2ccsc2)[C@H]1Cc1cnn(C)c1 ; field requested: Percent Effect
12.2

Query (molecule): COc1c(CNC2CCCc3ccccc32)c(C(C)C)nn1C (stereo not drawn) ; field requested: Percent Effect
3.59

Query (molecule): CC(=O)N1CCCC1C(=O)NCCOc1cc(C)cc(C)c1 (stereo not drawn) ; field requested: Percent Effect
-7.43

Query (molecule): O=C(CN(Cc1ccccc1)CC1CCOCC1)NC(=O)NC1CC1 ; field requested: Percent Effect
3

Query (molecule): O=C(Nc1nccs1)N1CCCC(N2CCNC2=O)C1 (stereo not drawn) ; field requested: Percent Effect
21.1

Query (molecule): COc1cccc(OCCNC(=O)CN2CCN(C)CC2C)c1 (stereo not drawn) ; field requested: Percent Effect
7.54

Query (molecule): CC1=N[C@@]2(CC[C@@H]3CN(Cc4ccccc4F)C[C@@H]32)C(=O)N1CC1CC1 ; field requested: Percent Effect
2.96

Query (molecule): CN(CC(=O)NCc1ccccn1)CC1CCCN1c1cccnn1 (stereo not drawn) ; field requested: Percent Effect
27.8

Query (molecule): CC(=O)N1[C@H](Cn2cncn2)C[C@@H]2CN(S(C)(=O)=O)CC[C@@H]21 ; field requested: Percent Effect
14.5

Query (molecule): COC(=O)c1ccc(N2CCN(C(=O)c3ccncc3)C(C)C2)cc1 (stereo not drawn) ; field requested: Percent Effect
10.1

---

# tested.target: Arginase-2, mitochondrial (Homo sapiens)
# assay.details: in vitro enzyme assay to detect the production of urea directly proportional to the activity of Arginase II
# Assay type: functional
# Design: scale not given: in the data most compounds retested in dose-response had high values
# run.parameters: 33.3 µM
property: Percent Effect
Give the number first and the unit second.

Return Percent Effect measured with Arginase-2, mitochondrial (Homo sapiens) given this compound: CCN(CC)CCNC(=O)c1nn(CC)cc1Cl
-10.7%

Return Percent Effect measured with Arginase-2, mitochondrial (Homo sapiens) given this compound: Cc1nn(C)c(N(C)C)c1CNCc1cccnc1
-1.74%

Return Percent Effect measured with Arginase-2, mitochondrial (Homo sapiens) given this compound: O=C(c1ccc(C2CCCO2)s1)N1CCS(=O)(=O)CC1 (configuration not stated)
1.91%

Return Percent Effect measured with Arginase-2, mitochondrial (Homo sapiens) given this compound: NC(=O)COc1cccc(C(=O)Nc2cnc3n2CCCC3)c1
6.18%

Return Percent Effect measured with Arginase-2, mitochondrial (Homo sapiens) given this compound: CCC(=O)NCc1cc(Br)ccc1OC(F)F
1.04%

Return Percent Effect measured with Arginase-2, mitochondrial (Homo sapiens) given this compound: Cc1nc(CN2CCCN(C(=O)C3(C#N)CCCCC3)CC2)cs1
0%

Return Percent Effect measured with Arginase-2, mitochondrial (Homo sapiens) given this compound: CN(C(=O)Cc1ccc(NC(=O)NC2CCC2)cc1)c1ccccc1
0%

Return Percent Effect measured with Arginase-2, mitochondrial (Homo sapiens) given this compound: Cc1nc(C)n(CC2CN(CCc3ccncc3)CCO2)n1 (configuration not stated)
3.64%

Return Percent Effect measured with Arginase-2, mitochondrial (Homo sapiens) given this compound: CN(C)C(=O)NC[C@H]1OC[C@@H]2CCN(Cc3ccoc3)C[C@@H]21
-66.8%

Return Percent Effect measured with Arginase-2, mitochondrial (Homo sapiens) given this compound: Cc1cc(NC(=O)Cn2cc(C#N)c(=O)c3cc(Br)ccc32)no1
-9.9%

Return Percent Effect measured with Arginase-2, mitochondrial (Homo sapiens) given this compound: c1ccc(-c2cnc(CN3CCCC3Cn3cncn3)o2)cc1 (configuration not stated)
2.66%

Return Percent Effect measured with Arginase-2, mitochondrial (Homo sapiens) given this compound: Cc1nc(N2CCCC2)nc2c1CCN(C(=O)CC1CC1)CC2
-7.22%
